# measurement-notes: qHTS RealTime-Glo MT Cell Viability Assay in HEK293 cells - 40 hour (AID 1224874); further: on the % scale 0 is the no-effect control and ±100 the full control effect; nearly all actives have a fitted effect of over 50% in size
# test-context: RealTime-Glo luminescence; stronger effect = lower value
# Text: U.S. Tox21 Program National Center for Advancing Translational Sciences [NCATS] NIH Chemical Genomics Center [NCGC] U.S. Environmental Protection Agency [EPA] National Institutes of Environmental Health Sciences [NIEHS] National Toxicology Program [NTP] U.S. Food and Drug Administration [FDA] Tox21 Assay Overview: Measure of cell viability is critical in the cell-base assay. Analysis of cell viability is necessary for the characterization of cell responses to cytotoxic drugs and environmental stress. […]
Inconclusive results are not listed.
endpoint-name: max response (%)
# number only, unit % dropped from output

Recorded max response for Nc1ccc2cc(S(=O)(=O)O)cc(O)c2c1N=Nc1ccccc1C(F)(F)F , please?
0.853

Recorded max response for Clc1ccc(C(Cn2ccnc2)OCc2ccc(Sc3ccccc3)cc2)c(Cl)c1 (stereo unspecified) , please?
-2.43

Recorded max response for NNC(=O)c1cccc(C(=O)NN)c1 , please?
-2.8

Recorded max response for CC(C)(C)C(=O)OCOC(=O)[C@@H]1N2C(=O)[C@@H](NC(=O)[C@H](N)c3ccccc3)[C@H]2SC1(C)C , please?
5.37

Recorded max response for COC(=O)c1cc(Cl)ccc1OC , please?
6.18

Recorded max response for CC(C)(C)C1CCC(CC2=C(O)c3ccccc3C(=O)C2=O)CC1 (stereo unspecified) , please?
-30

Recorded max response for O=C(O)c1c(Cl)cccc1Cl , please?
1.14

Recorded max response for CC(C)=CCOc1ccc(/C=C/C(=O)c2ccc(OCC=C(C)C)cc2OCC(=O)O)cc1 , please?
1.22

Recorded max response for NC(=O)NS(=O)(=O)c1ccc(N)cc1 , please?
2.7

Recorded max response for CC(C)(C)C(=O)OCOC(=O)C1N2C(=O)CC2S(=O)(=O)C1(C)C (stereo unspecified) , please?
5.75

Recorded max response for O=C1c2c(O)ccc(Nc3ccc(CCO)cc3)c2C(=O)c2c([N+](=O)[O-])ccc(O)c21 , please?
-18.6

---

# measurement-notes: qHTS assay to identify small molecule antagonists of the peroxisome proliferator-activated receptor delta (PPARd) signaling pathway - cell viability counter screen (AID 743213); further: nearly all actives have a fitted effect of over 50% in size
# test-context: PPARd-bla HEK293H viability, CellTiter-Glo luminescence, 17 h; series mostly up to 62 µM
Inconclusive results are not listed. Active and inactive are the calls of the source. Calls come from the whole dose curve; as a rule, active = well fitted cell-killing curve with a large enough effect in the repeat runs; inconclusive = weak or mixed curves; inactive = no such curve, though single readings can be large or run the other way.
Output constraint: value belongs to active, inactive

Tell me the assay call for COc1cc(-c2nc(NC(=O)c3cc4cc(C)cc(C)c4n3CC(=O)O)sc2CCC2CCCCC2)c(OC)cc1Cl please.
active

Tell me the assay call for Cc1cc(O)c(C(C)(C)C)cc1C(C)(C)C please.
active

Tell me the assay call for N#CC1(c2ccc(F)cc2)CCC(=O)CC1 please.
inactive

Tell me the assay call for C[n+]1ccn(Cc2ccccc2)c1 please.
inactive

Tell me the assay call for COc1ccc(C(=O)/C(Br)=C\C(=O)O)cc1 please.
inactive

Tell me the assay call for CC(C)(C)CC(C)(C)c1ccc(O)c(Cc2ccc(Cl)cc2Cl)c1 please.
active

Tell me the assay call for ON=C1CCCC1 please.
inactive

Tell me the assay call for O=C1c2c(O)ccc(Nc3ccc(CCO)cc3)c2C(=O)c2c([N+](=O)[O-])ccc(O)c21 please.
inactive

Tell me the assay call for Nc1ccccc1O please.
inactive

Tell me the assay call for NNC(=O)c1cccc(C(=O)NN)c1 please.
inactive

Tell me the assay call for CC(=O)OCC(C)OC(C)=O (stereo not drawn) please.
inactive

Tell me the assay call for O=C(Oc1cccc2cccnc12)c1ccccc1 please.
active

Tell me the assay call for CC(C)(C)C(=O)OCOC(=O)C1N2C(=O)CC2S(=O)(=O)C1(C)C (stereo not drawn) please.
inactive
